- assay_summary: Biodistribution in Daudi xenograft bearing mice
- Format: in vivo, mouse
- condition_parameters: female, CB-17 SCID, mouse, blood, iv, with AMD3100, 50 µg per animal, coinjected (CXCR4 competition), total radioactivity, 1h p.i., coinjection of 50 µg AMD3100/animal; n=1; read-out: Biodistribution blood, + AMD3100
Where a SMILES comes first, the peptide text is derived from it. Side-chain parts run from the residue outwards. [ ]: non-standard residue; d: D form. The star is where a group is joined. DOTA = O=C(O)CN1CCN(CC(=O)O)CCN(CC(=O)*)CCN(CC(=O)O)CC1; 2Nal = N[C@@H](Cc1ccc2ccccc2c1)C(=O)O; dNMeOrn = CN[C@H](CCCN)C(=O)O; 4Abz = Nc1ccc(C(=O)O)cc1
experimental_readout: tissue uptake at 1 h (%ID/g)
Numbers only here, please. The scale is %ID/g.

Would you mind telling me what tissue uptake at 1 h value was observed for C[C@@H](NC(=O)[C@@H](CCCNC(=N)N)NC(=O)CN1CCN(CC(=O)O)CCN(CC(=O)O)CCN(CC(=O)O)CC1)C(=O)Nc1ccc(C(=O)NCCC[C@@H]2C(=O)N[C@@H](CCCNC(=N)N)C(=O)N[C@@H](Cc3ccc4ccccc4c3)C(=O)NCC(=O)N[C@H](Cc3ccc(O)cc3)C(=O)N2C)cc1 [[^177Lu]DOTA-r-a-ABA-CPCR4, metal not drawn] (cyclo([2Nal]G[dY][dNMeOrn]([4Abz-dA-dR-DOTA])R)) ?
1.9

====

- assay_summary: Biodistribution in Daudi xenograft bearing mice
- Format: in vivo, mouse
- condition_parameters: female, CB-17 SCID, mouse, pancreas, iv, with AMD3100, 50 µg per animal, coinjected (CXCR4 competition), total radioactivity, 1h p.i., coinjection of 50 µg AMD3100/animal; means ± SD, n=3; read-out: Biodistribution pancreas, competition with AMD3100
Where a SMILES comes first, the peptide text is derived from it. Side-chain parts run from the residue outwards. [ ]: non-standard residue; d: D form. The star is where a group is joined. DOTA = O=C(O)CN1CCN(CC(=O)O)CCN(CC(=O)*)CCN(CC(=O)O)CC1; 2Nal = N[C@@H](Cc1ccc2ccccc2c1)C(=O)O; dNMeOrn = CN[C@H](CCCN)C(=O)O; 4Abz = Nc1ccc(C(=O)O)cc1
experimental_readout: tissue uptake at 1 h (%ID/g)
Numbers only here, please. The scale is %ID/g.

Would you mind telling me what tissue uptake at 1 h value was observed for C[C@@H](NC(=O)[C@@H](CCCNC(=N)N)NC(=O)CN1CCN(CC(=O)O)CCN(CC(=O)O)CCN(CC(=O)O)CC1)C(=O)Nc1ccc(C(=O)NCCC[C@@H]2C(=O)N[C@@H](CCCNC(=N)N)C(=O)N[C@@H](Cc3ccc4ccccc4c3)C(=O)NCC(=O)N[C@H](Cc3ccc(O)cc3)C(=O)N2C)cc1 [[^68Ga]DOTA-r-a-ABA-CPCR4, metal not drawn] (cyclo([2Nal]G[dY][dNMeOrn]([4Abz-dA-dR-DOTA])R)) ?
0.69

====

- assay_summary: Biodistribution in Daudi xenograft bearing mice
- Assay type: in vivo, mouse
- condition_parameters: female, CB-17 SCID, mouse, blood, iv, total radioactivity, 1h p.i., tracer only, i.v.; γ-counter; means ± SD, n=4-5 (68Ga: n=4); read-out: Biodistribution blood
Where a SMILES comes first, the peptide text is derived from it. Side-chain parts run from the residue outwards. [ ]: non-standard residue; d: D form. The star is where a group is joined. DOTA = O=C(O)CN1CCN(CC(=O)O)CCN(CC(=O)*)CCN(CC(=O)O)CC1; dTyr(3-I) = N[C@H](Cc1ccc(O)c(I)c1)C(=O)O; 2Nal = N[C@@H](Cc1ccc2ccccc2c1)C(=O)O; dNMeOrn = CN[C@H](CCCN)C(=O)O; 4Abz = Nc1ccc(C(=O)O)cc1
experimental_readout: tissue uptake at 1 h (%ID/g)
Numbers only here, please. The scale is %ID/g.

Would you mind telling me what tissue uptake at 1 h value was observed for C[C@@H](NC(=O)[C@@H](CCCNC(=N)N)NC(=O)CN1CCN(CC(=O)O)CCN(CC(=O)O)CCN(CC(=O)O)CC1)C(=O)Nc1ccc(C(=O)NCCC[C@@H]2C(=O)N[C@@H](CCCNC(=N)N)C(=O)N[C@@H](Cc3ccc4ccccc4c3)C(=O)NCC(=O)N[C@H](Cc3ccc(O)c(I)c3)C(=O)N2C)cc1 [[^68Ga]DOTA-r-a-ABA-iodoCPCR4, metal not drawn] (cyclo([2Nal]G[dTyr(3-I)][dNMeOrn]([4Abz-dA-dR-DOTA])R)) ?
3.71

====

- assay_summary: Biodistribution in Daudi xenograft bearing mice
- Type: in vivo, mouse
- condition_parameters: female, CB-17 SCID, mouse, tumor (Daudi xenograft), iv, with AMD3100, 50 µg per animal, coinjected (CXCR4 competition), total radioactivity, 1h p.i., coinjection of 50 µg AMD3100/animal; n=1; read-out: Biodistribution tumor, + AMD3100
Where a SMILES comes first, the peptide text is derived from it. Side-chain parts run from the residue outwards. [ ]: non-standard residue; d: D form. The star is where a group is joined. DOTA = O=C(O)CN1CCN(CC(=O)O)CCN(CC(=O)*)CCN(CC(=O)O)CC1; 2Nal = N[C@@H](Cc1ccc2ccccc2c1)C(=O)O; dNMeOrn = CN[C@H](CCCN)C(=O)O; 4Abz = Nc1ccc(C(=O)O)cc1
experimental_readout: tissue uptake at 1 h (%ID/g)
Numbers only here, please. The scale is %ID/g.

Would you mind telling me what tissue uptake at 1 h value was observed for C[C@@H](NC(=O)[C@@H](CCCNC(=N)N)NC(=O)CN1CCN(CC(=O)O)CCN(CC(=O)O)CCN(CC(=O)O)CC1)C(=O)Nc1ccc(C(=O)NCCC[C@@H]2C(=O)N[C@@H](CCCNC(=N)N)C(=O)N[C@@H](Cc3ccc4ccccc4c3)C(=O)NCC(=O)N[C@H](Cc3ccc(O)cc3)C(=O)N2C)cc1 [[^177Lu]DOTA-r-a-ABA-CPCR4, metal not drawn] (cyclo([2Nal]G[dY][dNMeOrn]([4Abz-dA-dR-DOTA])R)) ?
3.04

====

- assay_summary: Biodistribution in Daudi xenograft bearing mice
- Type: in vivo, mouse
- condition_parameters: female, CB-17 SCID, mouse, lung, iv, total radioactivity, 48h p.i., i.v.; means ± SD, n=4-5; read-out: Biodistribution lung
Where a SMILES comes first, the peptide text is derived from it. Side-chain parts run from the residue outwards. [ ]: non-standard residue; d: D form. The star is where a group is joined. DOTA = O=C(O)CN1CCN(CC(=O)O)CCN(CC(=O)*)CCN(CC(=O)O)CC1; dTyr(3-I) = N[C@H](Cc1ccc(O)c(I)c1)C(=O)O; 2Nal = N[C@@H](Cc1ccc2ccccc2c1)C(=O)O; dNMeOrn = CN[C@H](CCCN)C(=O)O; 4Abz = Nc1ccc(C(=O)O)cc1
// tissue uptake at 48 h lookup, one value per entry
Numbers only here, please. The scale is %ID/g.

C[C@@H](NC(=O)[C@@H](CCCNC(=N)N)NC(=O)CN1CCN(CC(=O)O)CCN(CC(=O)O)CCN(CC(=O)O)CC1)C(=O)Nc1ccc(C(=O)NCCC[C@@H]2C(=O)N[C@@H](CCCNC(=N)N)C(=O)N[C@@H](Cc3ccc4ccccc4c3)C(=O)NCC(=O)N[C@H](Cc3ccc(O)c(I)c3)C(=O)N2C)cc1 [[^177Lu]DOTA-r-a-ABA-iodoCPCR4, metal not drawn] (cyclo([2Nal]G[dTyr(3-I)][dNMeOrn]([4Abz-dA-dR-DOTA])R)): 0.57

Would you mind telling me what tissue uptake at 48 h value was observed for C[C@@H](NC(=O)[C@@H](CCCNC(=N)N)NC(=O)CN1CCN(CC(=O)O)CCN(CC(=O)O)CCN(CC(=O)O)CC1)C(=O)Nc1ccc(C(=O)NCCC[C@@H]2C(=O)N[C@@H](CCCNC(=N)N)C(=O)N[C@@H](Cc3ccc4ccccc4c3)C(=O)NCC(=O)N[C@H](Cc3ccc(O)cc3)C(=O)N2C)cc1 [[^177Lu]DOTA-r-a-ABA-CPCR4, metal not drawn] (cyclo([2Nal]G[dY][dNMeOrn]([4Abz-dA-dR-DOTA])R)) ?
0.19

====

- assay_summary: Biodistribution in Daudi xenograft bearing mice
- Format: in vivo, mouse
- condition_parameters: female, CB-17 SCID, mouse, small intestine, iv, with AMD3100, 50 µg per animal, coinjected (CXCR4 competition), total radioactivity, 1h p.i., coinjection of 50 µg AMD3100/animal; n=1; read-out: Biodistribution small intestine, + AMD3100
Where a SMILES comes first, the peptide text is derived from it. Side-chain parts run from the residue outwards. [ ]: non-standard residue; d: D form. The star is where a group is joined. DOTA = O=C(O)CN1CCN(CC(=O)O)CCN(CC(=O)*)CCN(CC(=O)O)CC1; 2Nal = N[C@@H](Cc1ccc2ccccc2c1)C(=O)O; dNMeOrn = CN[C@H](CCCN)C(=O)O; 4Abz = Nc1ccc(C(=O)O)cc1
experimental_readout: tissue uptake at 1 h (%ID/g)
Numbers only here, please. The scale is %ID/g.

Would you mind telling me what tissue uptake at 1 h value was observed for C[C@@H](NC(=O)[C@@H](CCCNC(=N)N)NC(=O)CN1CCN(CC(=O)O)CCN(CC(=O)O)CCN(CC(=O)O)CC1)C(=O)Nc1ccc(C(=O)NCCC[C@@H]2C(=O)N[C@@H](CCCNC(=N)N)C(=O)N[C@@H](Cc3ccc4ccccc4c3)C(=O)NCC(=O)N[C@H](Cc3ccc(O)cc3)C(=O)N2C)cc1 [[^177Lu]DOTA-r-a-ABA-CPCR4, metal not drawn] (cyclo([2Nal]G[dY][dNMeOrn]([4Abz-dA-dR-DOTA])R)) ?
1.36
